Just for reference, ChEMBL document CHEMBL5113392 is where these values come from.

Test: Selectivity index, ratio of GI50 for human HaCaT cells to GI50 for human HCT116-p53-null cells
Format: toxicity
Conditions: HaCaT cells versus HCT116-p53-null cells, read-out: RatioGI50
Entries and their selectivity ratio values follow.
Give only the figure.

O=C1CC(N2C(=O)CSC2=S)C(=O)N1c1ccc(Cl)cc1 (centres undefined) = 0.98
O=C1CC(N2C(=O)CSC2=S)C(=O)N1c1ccc(O)cc1 (centres undefined) = 1
C=CCOc1cccc(/C=C2\SC(=S)N(C3CC(=O)N(c4ccc(Cl)cc4)C3=O)C2=O)c1 (centres undefined) = 1
O=C1Nc2ccccc2/C1=C1/SC(=S)N(C2CC(=O)N(c3ccc(Cl)cc3)C2=O)C1=O (centres undefined) = 1
C=CCOc1ccccc1/C=C1\SC(=S)N(C2CC(=O)N(c3ccc(Cl)cc3)C2=O)C1=O (centres undefined) = 10.4
O=C1CC(N2C(=O)/C(=C/C(Cl)=C/c3ccc([N+](=O)[O-])cc3)SC2=S)C(=O)N1c1ccc(Cl)cc1 (centres undefined) = 10.7
O=C1Nc2ccc(Cl)cc2/C1=C1/SC(=S)N(C2CC(=O)N(c3ccc(Cl)cc3)C2=O)C1=O (centres undefined) = 1
O=C1CC(N2C(=O)/C(=C/C(Cl)=C/c3ccc([N+](=O)[O-])cc3)SC2=S)C(=O)N1c1ccc(O)cc1 (centres undefined) = 13

Notebook: O=C1Nc2ccccc2/C1=C1/SC(=S)N(C2CC(=O)N(c3ccc(Br)cc3)C2=O)C1=O (centres undefined) , selectivity ratio read as 1
